Let's go through some recorded log10(IC50) values for Src (p60^c-src) (Homo sapiens) together.
Log10 applied to IC50; unit prior to transform: nM.

Example cases with answers are listed next.
compound	log10(IC50)
N#Cc1nc2nc(Nc3ccc(OCCO)cc3)ncc2cc1-c1c(Cl)cccc1Cl [Example 4]	0.23
N#Cc1nc2nc(Nc3ccc(N4CCOCC4)cc3)ncc2cc1-c1c(Cl)cccc1Cl [Example 7-2]	0.11
NC(=O)c1nc2nc(Nc3ccc(N4CCOCC4)cc3)ncc2cc1-c1c(Cl)cccc1Cl [Example 8-1]	0.00

### Prompt Which log10(IC50) value is on record for CSc1cccc(Nc2ncc3cc(-c4c(Cl)cccc4Cl)c(C(=O)NCCNS(C)(=O)=O)nc3n2)c1 [Example 6-7] ?
### Response 0.40

### Prompt Which log10(IC50) value is on record for CN1CCN(c2ccc(Nc3ncc4cc(-c5c(Cl)cccc5Cl)c(C(=O)NCCNS(C)(=O)=O)nc4n3)cc2)CC1 [Example 2] ?
### Response -0.52

### Prompt Which log10(IC50) value is on record for Cc1ccc(Nc2ncc3cc(-c4c(Cl)cccc4Cl)c(C(=O)NCCNS(C)(=O)=O)nc3n2)cn1 [Example 6-8] ?
### Response 0.67
